Conditions: 25 °C
Readings of solubility for the listed molecules
Report field: quantity (unit follows the number).

cpd_smiles: Clc1c(Cl)c(Cl)c2c(c1Cl)Oc1ccccc1O2
endpoint: solubility
recorded_result: 1.96 nM

Lab note: next molecule to report on.
Which solubility is listed for Clc1cc2c(cc1Cl)Oc1cc(Cl)c(Cl)cc1O2 ? 0.621 nM

###

endpoint: logP
Hey, just send me the number, nothing else.

Known results for compounds:
cpd_smiles: Clc1c(Cl)c(Cl)c2c(c1Cl)Oc1c(Cl)c(Cl)c(Cl)c(Cl)c1O2
recorded_result: 8.2
--
cpd_smiles: Clc1c(Cl)c(Cl)c2c(c1Cl)Oc1ccccc1O2
recorded_result: 6.6
--
cpd_smiles: Clc1cc2c(cc1Cl)Oc1c(Cl)c(Cl)c(Cl)c(Cl)c1O2
recorded_result: 7.8

Lab note: next compound to report on.
Which logP is listed for Clc1cccc2c1Oc1ccccc1O2 ? 4.75

###

logP vs 6: at or above is class 1, below is class 0.

cpd_smiles: Clc1cc2c(c(Cl)c1Cl)Oc1c(Cl)c(Cl)c(Cl)c(Cl)c1O2
discrete_label: class 1
//
cpd_smiles: c1ccc2c(c1)Oc1ccccc1O2
discrete_label: class 0
//
cpd_smiles: Clc1cc(Cl)c2c(c1Cl)Oc1ccccc1O2
discrete_label: class 1
//
cpd_smiles: Clc1ccc2c(c1)Oc1c(Cl)c(Cl)c(Cl)c(Cl)c1O2
discrete_label: class 1
//
cpd_smiles: Clc1cc2c(cc1Cl)Oc1cc(Cl)c(Cl)cc1O2
discrete_label: class 1
//
cpd_smiles: Clc1ccc2c(c1)Oc1ccccc1O2
discrete_label: class 0

Below: the item to evaluate.
Is it the case that Clc1ccc2c(c1)Oc1ccc(Cl)cc1O2 has logP reaching or exceeding 6? class 0
